Where do these numbers come from? They come from patent US20220073604A1.

Below: a set of entries, each annotated with reported koff.
assayTarget: T1, bacterially produced human IL-6 (human, UniProt P05231 30-212)
T1 construct: also called bactIL-6; prokaryotic IL-6
assayOverview: SPR; purified Fab
Write down the numeric answer in s⁻¹ and omit the unit.

Consider the worked cases shown below.
Fab 18C7 (Fab, V domains shown, Fab; also called 18C7 (090-423)) VH: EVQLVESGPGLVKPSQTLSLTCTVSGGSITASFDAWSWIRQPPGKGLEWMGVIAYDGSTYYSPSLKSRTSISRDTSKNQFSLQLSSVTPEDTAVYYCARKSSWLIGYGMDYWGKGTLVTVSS VL: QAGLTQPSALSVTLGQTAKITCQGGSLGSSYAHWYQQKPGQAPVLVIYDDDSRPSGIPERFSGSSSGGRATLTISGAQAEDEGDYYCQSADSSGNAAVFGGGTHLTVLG
0.0011
Fab 20A4 (Fab, V domains shown, Fab) VH: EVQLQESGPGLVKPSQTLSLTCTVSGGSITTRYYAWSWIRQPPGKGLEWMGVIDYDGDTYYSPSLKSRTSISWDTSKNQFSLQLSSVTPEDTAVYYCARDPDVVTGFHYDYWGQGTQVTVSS VL: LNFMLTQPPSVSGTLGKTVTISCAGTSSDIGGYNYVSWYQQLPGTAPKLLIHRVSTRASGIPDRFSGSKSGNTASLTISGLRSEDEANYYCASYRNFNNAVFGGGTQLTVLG
0.00062

[ask] Given the binder Fab 68F2 (Fab, V domains shown, VL-shuffled Fab of 20A4; for the crystal the Fab was made from 68F2 mAb with papain; also called 68F2 Fab) VH: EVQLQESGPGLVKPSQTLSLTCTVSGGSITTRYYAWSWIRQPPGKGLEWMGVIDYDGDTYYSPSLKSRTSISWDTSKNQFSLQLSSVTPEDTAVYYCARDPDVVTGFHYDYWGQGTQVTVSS VL: QSALTQPPLVSGTPGQTVTISCAGANNDIGTYAYVSWYQQLPGTAPKLLIYKVTTRASGIPSRFSGSKSGNTASLTISGLQSEDEADYYCASYRNFNNAVFGRGTHLTVLG , what is its reported koff?
[reply] 8e-05

[ask] Given the binder Fab 17F10 (Fab, V domains shown, Fab; also called 17F10 pur Fab 68 nM) VH: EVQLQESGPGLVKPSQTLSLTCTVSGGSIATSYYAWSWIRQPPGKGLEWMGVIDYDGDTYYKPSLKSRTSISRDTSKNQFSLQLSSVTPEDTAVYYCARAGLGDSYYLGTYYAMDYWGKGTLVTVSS VL: QAGLTQPPSVSGSPGKTVTISCAGTTSDVGTGNFVSWYQQLPGMAPKLLIYDVNKRASGIADRFSGSKSGNTASLTISGLQSEDEADYYCASYRSLNNVVFGGGTHLTVLG , what is its reported koff?
[reply] 0.0012
